assaySystem: T1, 4H675-AA
T1 chain: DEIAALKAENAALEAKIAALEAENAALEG
measurementDescription: two-hybrid library CCmax;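 further: natural log of median RNA to DNA barcode read ratio; higher means stronger binding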
Lab note: anything with interaction score below -2 is marked 1; values at -2 or higher are marked 0.

| binder | assignedClass |
| --- | --- |
| DKNAALEAEIAALEAKNAALEAEIAALEG [4H3121-AA] | 1 |
| DEIAALEAKNAALKAKNAALEAEIAALEG [4H497-AA] | 0 |
| DKNAALKAEIAALEAEIAALEAKNAALEG [4H3591-AA] | 0 |
| DEIAALKAENAALEAKIAALEAENAALEG [4H675-AA] | 0 |
| DEIAALEAKNAALKAENAALKAKIAALKG [4H478-AA] | 0 |
